Below is a list of entries, each paired with its recorded Kd value.
biological target: DNMT3A full-length (human, UniProt Q9Y6K1 1-912); test: EMSA
Sequence (Q9Y6K1 whole entry): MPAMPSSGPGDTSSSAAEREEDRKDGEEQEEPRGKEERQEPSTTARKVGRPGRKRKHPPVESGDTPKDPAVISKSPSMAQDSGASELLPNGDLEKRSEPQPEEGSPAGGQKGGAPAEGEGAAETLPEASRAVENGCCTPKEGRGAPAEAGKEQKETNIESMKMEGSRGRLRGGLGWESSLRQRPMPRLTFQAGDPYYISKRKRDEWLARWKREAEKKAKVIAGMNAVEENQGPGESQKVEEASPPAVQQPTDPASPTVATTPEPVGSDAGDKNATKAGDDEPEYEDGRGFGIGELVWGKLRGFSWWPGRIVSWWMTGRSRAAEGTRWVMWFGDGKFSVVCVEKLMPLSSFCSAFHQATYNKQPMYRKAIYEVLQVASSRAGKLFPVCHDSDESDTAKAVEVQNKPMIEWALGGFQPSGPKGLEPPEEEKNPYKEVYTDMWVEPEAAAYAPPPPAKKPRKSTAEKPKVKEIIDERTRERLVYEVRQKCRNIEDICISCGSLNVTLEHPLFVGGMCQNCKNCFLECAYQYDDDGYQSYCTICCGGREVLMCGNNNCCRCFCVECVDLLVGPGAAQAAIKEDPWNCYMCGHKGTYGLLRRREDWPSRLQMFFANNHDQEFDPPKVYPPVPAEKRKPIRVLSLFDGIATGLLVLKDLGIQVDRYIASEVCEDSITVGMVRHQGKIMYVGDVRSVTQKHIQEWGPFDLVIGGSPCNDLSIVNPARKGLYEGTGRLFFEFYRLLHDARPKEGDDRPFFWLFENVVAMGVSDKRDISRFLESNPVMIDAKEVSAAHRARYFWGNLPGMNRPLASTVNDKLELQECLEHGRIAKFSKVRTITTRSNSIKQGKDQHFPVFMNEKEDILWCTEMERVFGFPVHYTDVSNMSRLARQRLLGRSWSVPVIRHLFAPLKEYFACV
Quantity Name: Kd (nM)

INSERT INTO measurements (binder, quantity_name, experimental_result) VALUES
  ('GAGUUUACCCCGCGCCACCUU (ssRNA) [EFS1 (ssEF1a RNA)]', 'Kd', 690),
  ('NUP153 duplex siRNA (dsRNA, 3'' dTdT on both strands (DNA residues)) RNA 1: ACCAAAUAAAACUGGCAAATT RNA 2: UUUGCCAGUUUUAUUUGGUTT', 'Kd', 520);
